# Experimental system: ATP-dependent translocase ABCB1 (Homo sapiens, UniProt P08183)
# Sequence (P08183 whole entry): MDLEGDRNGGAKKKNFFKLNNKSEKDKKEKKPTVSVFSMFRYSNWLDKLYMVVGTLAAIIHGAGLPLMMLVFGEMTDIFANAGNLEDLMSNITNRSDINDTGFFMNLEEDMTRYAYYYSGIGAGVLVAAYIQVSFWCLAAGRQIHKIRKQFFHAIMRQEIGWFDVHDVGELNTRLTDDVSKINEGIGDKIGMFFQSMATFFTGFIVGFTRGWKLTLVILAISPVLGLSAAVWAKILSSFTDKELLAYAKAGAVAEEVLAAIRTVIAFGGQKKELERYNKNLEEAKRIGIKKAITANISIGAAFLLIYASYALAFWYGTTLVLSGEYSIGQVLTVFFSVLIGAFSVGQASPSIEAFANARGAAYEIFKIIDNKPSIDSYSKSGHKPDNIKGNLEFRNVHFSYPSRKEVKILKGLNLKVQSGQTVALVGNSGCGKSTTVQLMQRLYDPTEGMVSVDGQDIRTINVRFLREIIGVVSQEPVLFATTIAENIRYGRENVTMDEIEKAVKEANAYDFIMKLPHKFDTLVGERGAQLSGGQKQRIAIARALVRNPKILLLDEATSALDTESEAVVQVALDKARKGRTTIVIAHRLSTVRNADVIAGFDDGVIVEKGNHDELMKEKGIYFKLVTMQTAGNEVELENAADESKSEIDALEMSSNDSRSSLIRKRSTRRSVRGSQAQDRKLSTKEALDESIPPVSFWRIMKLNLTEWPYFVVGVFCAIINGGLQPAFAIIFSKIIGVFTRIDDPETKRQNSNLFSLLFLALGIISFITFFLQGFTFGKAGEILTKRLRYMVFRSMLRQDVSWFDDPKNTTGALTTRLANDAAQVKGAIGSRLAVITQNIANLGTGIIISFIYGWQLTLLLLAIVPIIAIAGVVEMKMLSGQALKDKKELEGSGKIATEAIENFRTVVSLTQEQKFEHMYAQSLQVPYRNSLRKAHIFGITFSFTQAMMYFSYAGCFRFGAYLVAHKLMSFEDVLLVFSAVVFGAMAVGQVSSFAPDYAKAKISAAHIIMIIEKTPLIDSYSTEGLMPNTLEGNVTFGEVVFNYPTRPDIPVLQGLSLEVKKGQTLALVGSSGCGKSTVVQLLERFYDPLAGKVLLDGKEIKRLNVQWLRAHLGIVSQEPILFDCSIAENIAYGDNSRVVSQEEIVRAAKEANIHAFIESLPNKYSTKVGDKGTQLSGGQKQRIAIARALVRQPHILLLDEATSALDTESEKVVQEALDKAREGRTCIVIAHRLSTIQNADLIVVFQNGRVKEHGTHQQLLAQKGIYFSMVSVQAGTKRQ
# Experimental details: Inhibition of P-gp-mediated multidrug resistance in doxorubicin-resistant human MCF7/ADR cells assessed as fold reversal of resistance by measuring doxorubicin IC50 incubated for 48 hrs by CCK-8 assay relative to doxorubicin IC50 in absence of compound
# Assay type: cell-based
# Reported conditions: nci-adr-res
List of fold change (FC) values.

Would you please look over these solved cases?
| Substance smiles | fold change (FC) |
| --- | --- |
| CCCOc1ccc(-c2ccc3[nH]c(C(=O)N4CCc5cc(OC)c(OC)cc5C4)cc3c2)cc1 | 16.5 |
| COc1cc2c(cc1OC)CN(C(=O)c1cc3cc(-c4ccc(NC(=O)c5ccc(Cl)cc5)cc4)ccc3n1Cc1cccc(Br)c1)CC2 | 118.6 |

Let's switch to this molecule now.
Which value of fold change (FC) has been reported for "COc1cc2c(cc1OC)CN(C(=O)c1cc3cc(-c4ccc(NC(=O)c5ccc(Cl)cc5)cc4)ccc3n1Cc1ccccc1Br)CC2" in the records?
36.1

###

# Experimental system: ATP-dependent translocase ABCB1 (Homo sapiens, UniProt P08183)
# Experimental details: Inhibition of P-gp-mediated multidrug resistance in doxorubicin-resistant human MCF7/ADR cells assessed as fold reversal of resistance by measuring doxorubicin IC50 incubated for 48 hrs by CCK-8 assay relative to doxorubicin IC50 in absence of compound
# Assay type: cell-based
# Reported conditions: nci-adr-res
Below is a list of entries, each paired with its recorded fold change (FC) value.

| Substance smiles | fold change (FC) |
| --- | --- |
| COc1cc2c(cc1OC)CN(CCc1ccc(NC(=O)c3cc(OC)c(OC)cc3NC(=O)c3cnc4ccccc4c3)cc1)CC2 | 283.2 |
| COc1cc2c(cc1OC)CN(C(=O)c1cc3cc(-c4ccc(NC(=O)c5ccc(Cl)cc5)cc4)ccc3n1Cc1ccc(Cl)cc1)CC2 | 25.9 |
| COc1cc2c(cc1OC)CN(C(=O)c1cc3cc(-c4ccc(NC(=O)c5ccc(Cl)cc5)cc4)ccc3n1Cc1cccc(C(F)(F)F)c1)CC2 | 39.9 |
| COc1cc2c(cc1OC)CN(C(=O)c1cc3cc(-c4ccc(NC(=O)c5ccc(C(F)(F)F)cc5)cc4)ccc3[nH]1)CC2 | 1717 |
| COc1cc2c(cc1OC)CN(C(=O)c1cc3cc(-c4cc(OC)c(OC)c(OC)c4)ccc3[nH]1)CC2 | 137.6 |

Lab request: please report fold change (FC) under test system ATP-dependent translocase ABCB1 (Homo sapiens, UniProt P08183) for "COc1cc2c(cc1OC)CN(C(=O)c1cc3cc(-c4ccc(NC(=O)c5ccc(Cl)cc5)cc4)ccc3n1Cc1ccccc1F)CC2"
92.1

Repeat for the following molecule: "COc1cc2c(cc1OC)CN(C(=O)c1cc3cc(-c4ccc(NC(=O)c5ccc(Cl)cc5)cc4)ccc3n1Cc1ccc(Br)cc1)CC2"
31.1

Quick one: "COc1cccc(-c2ccc3[nH]c(C(=O)N4CCc5cc(OC)c(OC)cc5C4)cc3c2)c1"
204.4

Further, for "COc1cc(Cn2c(C(=O)N3CCc4cc(OC)c(OC)cc4C3)cc3cc(-c4ccc(NC(=O)c5ccc(Cl)cc5)cc4)ccc32)cc(OC)c1" ?
41.5

###

# System: MCF7
# Experimental details: Cytotoxicity against human MCF7 cells assessed as inhibition rate at 5 uM measured after […] hrs by CCK-8 assay relative to control
# Type: functional
Measured attribute: inhibition at 5 µM (%)
Express it in %; write the number only.

Below are worked cases with known answers.
| Substance smiles | Quantity unit | Value observed |
| --- | --- | --- |
| COc1cc2c(cc1OC)CN(C(=O)c1cc3cc(-c4ccc(NC(=O)c5ccc(Br)cc5)cc4)ccc3[nH]1)CC2 | % | 10.2 |
| CCOc1ccc(C(=O)Nc2ccc(-c3ccc4[nH]c(C(=O)N5CCc6cc(OC)c(OC)cc6C5)cc4c3)cc2)cc1 | % | 15.4 |
| COc1cc2c(cc1OC)CN(C(=O)c1cc3cc(-c4ccc(NC(=O)c5ccc(Cl)cc5)cc4)ccc3n1Cc1ccc(F)cc1)CC2 | % | 11.2 |

Given the compound "COc1cc(Cn2c(C(=O)N3CCc4cc(OC)c(OC)cc4C3)cc3cc(-c4ccc(NC(=O)c5ccc(Cl)cc5)cc4)ccc32)cc(OC)c1" , what is its reported inhibition at 5 µM?
3

How about this compound: "COc1cc2c(cc1OC)CN(C(=O)c1cc3cc(-c4ccc(NC(=O)c5ccc(Cl)cc5)cc4)ccc3[nH]1)CC2"
21.7

Same again, this time with "COc1cc2c(cc1OC)CN(C(=O)c1cc3cc(-c4ccc(NC(=O)c5ccc(C(F)(F)F)cc5)cc4)ccc3[nH]1)CC2"
11.8

Would you mind doing "COc1cc2c(cc1OC)CN(C(=O)c1cc3cc(-c4ccc(NC(=O)c5ccc(OC(F)(F)F)cc5)cc4)ccc3[nH]1)CC2" as well?
46.7

Attribution: ChEMBL document CHEMBL5380848
